Biological target: hT2R8 (Homo sapiens, UniProt Q9NYW2)
Construct: Transfection was transient for imaging
Sequence (Q9NYW2 1-309): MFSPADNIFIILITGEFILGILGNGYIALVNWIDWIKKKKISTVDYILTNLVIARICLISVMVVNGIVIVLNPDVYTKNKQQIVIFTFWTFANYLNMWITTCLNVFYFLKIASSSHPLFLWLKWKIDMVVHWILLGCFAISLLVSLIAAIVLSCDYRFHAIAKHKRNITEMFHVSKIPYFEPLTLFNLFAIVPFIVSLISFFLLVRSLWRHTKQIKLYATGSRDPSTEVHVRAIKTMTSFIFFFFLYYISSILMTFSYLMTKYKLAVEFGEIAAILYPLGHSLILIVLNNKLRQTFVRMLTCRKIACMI
Assay: dose response, stable HEK-G16gust44 line, calcium dye, FLIPR or VIPR
Conditions: dose response, FIG. 6
Value Kind: pEC50
The scale used: pEC50 is minus the common logarithm of the concentration in molar units.

The reported pEC50 of the molecule CC[N+](CC)(CC(=O)Nc1c(C)cccc1C)Cc1ccccc1 [denatonium benzoate] was 3.35
